Entry source: ChEMBL document CHEMBL4689842

# Test system: HEK-293T
# PROCEDURE TEXT: Multiplex assay against HEK293T
# Format: toxicity, cell-based
# TEST CONDITIONS: human, 24 h, 10 µM, compound concentration 10 uM, replicate 2
Satisfied if Population Hoechst High Intensity Objects (%) is below 4%. Not satisfied if not; exact matches included in Not satisfied.

SMILES STRING	CATEGORY LABEL
CNc1cc(Oc2cc(C(=O)Nc3cc(N4CCN(C)CC4)cc(C(F)(F)F)c3)ccc2C)ncn1	Not satisfied

Challenge: Lab note: Population Hoechst High Intensity Objects (%) threshold 4%. Does this compound come in strictly under it? CCCS(=O)(=O)c1nc(NC2CC2)cc(-c2ccc3c(ccn3C3CC(C)(C)NC(C)(C)C3)c2)n1
Response given: Not satisfied

Challenge: Lab note: Population Hoechst High Intensity Objects (%) threshold 4%. Does this compound come in strictly under it? CNC(=O)c1ccc(Nc2nc(OC3CCCC3)c3c(-c4ccc5nc(C)oc5c4)c[nH]c3n2)c(OC)c1
Response given: Not satisfied

Challenge: Lab note: Population Hoechst High Intensity Objects (%) threshold 4%. Does this compound come in strictly under it? CCCS(=O)(=O)Nc1ccc(F)c(C(=O)c2c[nH]c3ncc(Cl)cc23)c1F
Response given: Satisfied

Challenge: Lab note: Population Hoechst High Intensity Objects (%) threshold 4%. Does this compound come in strictly under it? COc1ccc(-c2ccc3c(N4CCOCC4)nc(N4C[C@@H](C)O[C@@H](C)C4)nc3n2)cc1CO
Response given: Not satisfied

Challenge: Lab note: Population Hoechst High Intensity Objects (%) threshold 4%. Does this compound come in strictly under it? Cl.Oc1ccc2c3c1O[C@H]1c4[nH]c5c(c4C[C@@]4(O)[C@@H](C2)N(CC2CC2)CC[C@]314)C[C@@]1(O)[C@H]2Cc3ccc(O)c4c3[C@@]1(CCN2CC1CC1)[C@H]5O4
Response given: Satisfied

Challenge: Lab note: Population Hoechst High Intensity Objects (%) threshold 4%. Does this compound come in strictly under it? O=C1NC(=O)C(c2cnc3ccccn23)=C1c1cn2c3c(cc(F)cc13)CN(C(=O)N1CCCCC1)CC2
Response given: Not satisfied

Challenge: Lab note: Population Hoechst High Intensity Objects (%) threshold 4%. Does this compound come in strictly under it? CCN1CCN(Cc2ccc(Nc3ncc(F)c(-c4cc(F)c5nc(C)n(C(C)C)c5c4)n3)nc2)CC1.CS(=O)(=O)O
Response given: Not satisfied
